The measured values listed here are drawn from patent US20190071480A1.

target desc: T1, extracellular domain of activin receptor type IIB (ActRIIBecd), biotinylated (Homo sapiens (Human), UniProt Q13705 27-117, amino-biotinylated with amine-PEG3-Biotin)
T1 construct: immobilised on a streptavidin-coated sensor chip; also called biotinylated ActRIIBecd; extracellular domain of ActRIIB
T1 sequence: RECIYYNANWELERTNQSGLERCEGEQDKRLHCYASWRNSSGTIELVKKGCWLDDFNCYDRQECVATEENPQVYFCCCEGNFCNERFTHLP
method description: BIAcore SPR, biotinylated ActRIIBecd on chip; SD ±18.12 nM
parameter measured: Kd (nM)
Form entry: value (nM) — number only.

**Query** Requested field: Kd. Item: VDFSDVGWNDWAVAPPGYHAFYCHGECPFPLADHLNSDNHAIVQTLVNSV [Clone No. 16 domain (ActRIIBecd-associated polypeptide)]
**Result** 56
